Molecular target: MERTK (UniProt Q12866)
Sequence (Q12866 whole entry, looked up): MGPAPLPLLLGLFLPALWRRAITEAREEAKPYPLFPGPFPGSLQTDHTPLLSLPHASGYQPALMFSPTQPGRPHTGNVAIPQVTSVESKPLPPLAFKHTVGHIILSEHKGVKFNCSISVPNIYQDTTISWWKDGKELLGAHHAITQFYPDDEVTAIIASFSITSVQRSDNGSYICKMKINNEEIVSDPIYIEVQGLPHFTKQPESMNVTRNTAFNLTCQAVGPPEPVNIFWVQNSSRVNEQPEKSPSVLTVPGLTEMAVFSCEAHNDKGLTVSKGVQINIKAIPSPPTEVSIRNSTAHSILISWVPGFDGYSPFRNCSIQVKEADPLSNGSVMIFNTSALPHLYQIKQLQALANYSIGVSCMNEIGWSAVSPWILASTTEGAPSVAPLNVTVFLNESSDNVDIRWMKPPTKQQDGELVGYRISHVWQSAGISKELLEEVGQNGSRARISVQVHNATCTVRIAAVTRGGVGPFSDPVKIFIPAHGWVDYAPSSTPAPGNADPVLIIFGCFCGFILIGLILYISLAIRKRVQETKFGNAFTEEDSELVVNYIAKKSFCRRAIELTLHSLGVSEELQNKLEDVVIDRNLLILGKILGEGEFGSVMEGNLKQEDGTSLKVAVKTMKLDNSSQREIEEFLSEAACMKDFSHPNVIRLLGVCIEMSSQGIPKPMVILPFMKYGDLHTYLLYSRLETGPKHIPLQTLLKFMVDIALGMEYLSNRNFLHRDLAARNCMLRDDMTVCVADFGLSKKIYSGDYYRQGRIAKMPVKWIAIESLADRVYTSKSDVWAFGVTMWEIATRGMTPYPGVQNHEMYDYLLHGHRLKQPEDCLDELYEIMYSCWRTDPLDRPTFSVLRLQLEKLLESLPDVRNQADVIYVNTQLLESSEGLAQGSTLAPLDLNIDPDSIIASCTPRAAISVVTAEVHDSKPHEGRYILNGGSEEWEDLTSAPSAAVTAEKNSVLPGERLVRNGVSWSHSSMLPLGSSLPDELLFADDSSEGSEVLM
Assay: phosphorylation enrichment, bacterial display (enrichment ratio); higher = better substrate or ligand; peptides without Tyr show the background
Catalogue of sequences with associated phosphorylation enrichment

// solved cases for phosphorylation enrichment follow
- seq: "NTILLYHIMAW [GPR143_Y157_S152N]"
  measurement type: "phosphorylation enrichment"
  result: 4.42
- seq: "NRDNTYNRVSE [FGA_Y127]"
  measurement type: "phosphorylation enrichment"
  result: 0.329
- seq: "VATRWYWSPEL [CDKL5_Y177_R178W]"
  measurement type: "phosphorylation enrichment"
  result: 6.3
- seq: "GIFKDYFRFNF [PLA2G2D_Y85_S80G_YF]"
  measurement type: "phosphorylation enrichment"
  result: 0.56
- seq: "EIHTQYEAMAS [GFAP_Y242_R239H]"
  measurement type: "phosphorylation enrichment"
  result: 0.428
- seq: "ANVIHYFPTQA [SLC25A4_Y81_R80H]"
  measurement type: "phosphorylation enrichment"
  result: 0.456
- seq: "QWLEQYTQAIE [LSP1_Y234]"
  measurement type: "phosphorylation enrichment"
  result: 0.37
- seq: "SDVLSYGVTMW [ZAP70_Y525_W523L]"
  measurement type: "phosphorylation enrichment"
  result: 0.342

Here is the next item to consider.
Prompt: Query the reported phosphorylation enrichment for MERTK (UniProt Q12866); item: YPPTHYIRRVP [SLC4A11_Y820]
Response: 0.469

* * *

Target: Hck (UniProt P08631)
Sequence (P08631 whole entry, looked up): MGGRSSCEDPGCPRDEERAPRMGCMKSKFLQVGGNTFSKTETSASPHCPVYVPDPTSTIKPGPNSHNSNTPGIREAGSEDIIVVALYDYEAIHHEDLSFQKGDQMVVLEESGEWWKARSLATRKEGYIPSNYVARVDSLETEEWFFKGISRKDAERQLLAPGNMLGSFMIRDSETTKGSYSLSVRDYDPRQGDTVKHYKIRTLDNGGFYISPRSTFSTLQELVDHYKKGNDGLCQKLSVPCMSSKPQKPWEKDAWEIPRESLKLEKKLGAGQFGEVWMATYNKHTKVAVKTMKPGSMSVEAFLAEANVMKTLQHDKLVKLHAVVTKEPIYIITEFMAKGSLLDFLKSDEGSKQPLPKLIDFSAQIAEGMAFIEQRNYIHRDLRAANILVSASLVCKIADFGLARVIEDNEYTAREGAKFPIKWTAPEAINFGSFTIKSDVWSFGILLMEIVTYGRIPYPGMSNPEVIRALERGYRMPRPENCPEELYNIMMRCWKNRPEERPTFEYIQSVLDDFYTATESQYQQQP
Experiment: phosphorylation enrichment, bacterial display (enrichment ratio); higher = better substrate or ligand; peptides without Tyr show the background
Catalogue of sequences with associated phosphorylation enrichment
// print number alone

// solved cases for phosphorylation enrichment follow
- seq: "KKYFSYAWPFY [BRDT_Y291_H288Y]"
  number: 0.415
- seq: "HCEDGYPGGSD [CTNND1_Y221_Y217C]"
  number: 0.714

Prompt: Given the entry GRDVIYKGFED [NFU1_Y194_G190R] , report its measured phosphorylation enrichment.
Response: 0.96

* * *

Catalogue of sequences with associated phosphorylation enrichment
Target: Hck (UniProt P08631)
Assay: phosphorylation enrichment, bacterial display (enrichment ratio); higher = better substrate or ligand; peptides without Tyr show the background
// print number alone

// solved cases for phosphorylation enrichment follow
- seq: "TDTAAYEERVR [SPTB_Y474]"
  assay target: "Hck (UniProt P08631)"
  measurement type: "phosphorylation enrichment"
  number: 0.686
- seq: "DYSLKYPTDIP [APC_Y1183_A1184P]"
  assay target: "Hck (UniProt P08631)"
  measurement type: "phosphorylation enrichment"
  number: 0.503

Here is the next item to consider.
Prompt: Given the entry VPVDGYISGLL [PAK6_Y81_M76V] , report its measured phosphorylation enrichment.
Response: 0.542

* * *

Molecular target: c-Src SH2;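 further: peptide library displayed on the E. coli surface as eCPX fusions, selected cells deep-sequenced, score is each peptide's frequency after selection divided by its frequency in the input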
Test: SH2 binding enrichment of the phosphorylated peptide, bacterial display (enrichment ratio); higher = better substrate or ligand; peptides without Tyr show the background
Please enter Condition met where SH2 binding enrichment is greater than or equal to 0.5, and Condition not met where it is lower.

Reference set, count: 6
- seq: "TFLRTYTDAMQ [TSPAN7_Y124]"
  class assignment: "Condition met"
- seq: "YKEQGYHRLPS [RIN1_Y681_P686S]"
  class assignment: "Condition met"
- seq: "MRAIIYNSSTA [PLEKHA7_Y243_L241I]"
  class assignment: "Condition not met"
- seq: "ADFFDYGHGLS [KHDRBS3_Y304_YF]"
  class assignment: "Condition not met"
- seq: "FSMGCYEIFLG [HMGCL_Y198_S201Y_YF]"
  class assignment: "Condition met"
- seq: "NRLTDYFEPLL [BBS10_Y536_YF]"
  class assignment: "Condition met"

We next turn to a different sequence, shown below.
Prompt: Textbook exercise: given the entry VKANTYEKFWP [GATM_Y100_YF] , state whether its SH2 binding enrichment is greater than or equal to 0.5.
Response: Condition met
